System: 786-0 renal
Assay Name: NCI tumour cell line growth inhibition, 48 h
Listed next: entries and their corresponding TGI.

Compound	Measurement Target	Readout Qualifier	TGI / µM
C=CC(OCC)(OCC)OCC	786-0 renal	=	58.7
CO[C@@H]1O[C@H](C(=O)c2ccccc2)[C@H]2OC(C)(C)O[C@@H]12	786-0 renal	>	100
CCOC(=O)C#Cc1ccccc1	786-0 renal	=	21.5
CCCCCCCCCc1nn2c(Cc3ccccc3)nnc2s1	786-0 renal	=	34.7
S=c1cc(-c2ccc3c(c2)OCO3)s[nH]1	786-0 renal	>	100
CC12CCCC3(CC(=O)C(C)(C)C3C(=O)C1)C2 (configuration not stated)	786-0 renal	>	100
N#Cc1nc(NC(=O)c2ccccc2C(=O)O)c(C#N)[nH]1	786-0 renal	>	100

###

Test system: HCC-2998 colon
Assay Name: NCI tumour cell line growth inhibition, 48 h
Reported Property: TGI (µM)

Molecule	Unit Of Measurement	Readout Qualifier	Endpoint Result
C[C@]12CC[C@@H]3c4cc(I)c(O)cc4CC[C@H]3[C@@H]1CC[C@@H]2O	µM	=	21
Cc1ccc(C2=CC(=O)/C(=C\C(=O)c3ccc(Cl)cc3)O2)cc1	µM	=	51.1
O=c1cc(-c2cc(O)c(O)c(-c3c(O)cc4oc(-c5ccc(O)c(O)c5)cc(=O)c4c3O)c2)oc2cc(O)cc(O)c12	µM	>	25
COc1ccc(OC)c(Cn2cc3c(c2-c2ccccc2)CCc2cnoc2-3)c1	µM	>	100
COCCOCCOC1=CC(=O)c2c(O)ccc(O)c2C1=O	µM	=	3.51
C/C(=N\NC(=O)CC#N)c1c(O)cc(C)oc1=O	µM	>	100
O=C1CSC2=NC3=C(COC/C3=C\c3ccc(Br)cc3)C(c3ccc(Br)cc3)N12 (configuration not stated)	µM	>	100

###

Listed next: entries and their corresponding TGI.
System: MDA-MB-231 breast
Assay Name: NCI tumour cell line growth inhibition, 48 h
Reported Property: TGI

Compound	Reported Property	Endpoint Result
Cc1cc(N(CCC#N)CCC#N)ccc1/C=C(\NC(=O)/C=C/c1ccccc1)C(=O)NN	TGI	> 100 µM
CNC(=O)c1nn(C)c2c1C(C)(C)Cc1cnc(Nc3ccc(N4CCN(C)CC4)cc3)nc1-2	TGI	> 10 µM
C[C@H]1SC(c2ccc(Cl)cc2Cl)N(NC(=O)c2ccncc2)C1=O (stereo not given in full)	TGI	> 100 µM
O=C(Nc1noc(-c2ccccc2)n1)c1ccccc1CNc1noc(-c2ccccc2)n1	TGI	> 100 µM
CN(C)CC1CCC(CN(C)C)C1=O (stereo not given)	TGI	4.18 µM
COc1cc(/C=C/C=C2\CC/C(=C\C=C\c3ccc(O)c(OC)c3)C2=O)ccc1O	TGI	> 100 µM
CCOC(=O)/C=C(\C(=O)OCC)n1ccc(=O)n(Cc2cn(COCCOC(C)=O)nn2)c1=O	TGI	41.1 µM
CC(=O)OC(Cn1cncn1)(Cn1cncn1)c1ccc(Cl)cc1Cl	TGI	> 100 µM
CCCCn1c(-c2ccc(C(=O)O/N=C(\N)c3ccc4c(c3)OCO4)cc2)nc(-c2ccccc2)c1-c1ccccc1	TGI	> 100 µM
N#CNC(N)=Nc1ccc(Cl)cc1	TGI	> 100 µM

###

System: NCI-H460 lung
Assay Name: NCI tumour cell line growth inhibition, 48 h
Reported Property: TGI

Compound	Measurement Target	Reported Property	Endpoint Result
CC(=O)c1ccc(O)c(CN(C2CCCCC2)C2CCCCC2)c1O	NCI-H460 lung	TGI	> 100 µM
CC(=O)OC1C(COC(=O)c2ccccc2)OC(Nc2ncc(-c3ccc(Br)cc3)s2)C(OC(=O)c2ccccc2)C1OC(=O)c1ccccc1 (centres undefined)	NCI-H460 lung	TGI	> 100 µM
C[n+]1c(-c2ccc(/C=C/C=N\NC(=O)c3ccc(C(=O)N/N=C\C=C\c4ccc(-c5cn6ccccc6[n+]5C)cc4)cc3)cc2)cn2ccccc21	NCI-H460 lung	TGI	> 100 µM
COc1cc(NCCCCCCCNC(C)C)c2nccc(C)c2c1	NCI-H460 lung	TGI	27.5 µM

###

System: SN12C renal
Assay Name: NCI tumour cell line growth inhibition, 48 h
Reported Property: TGI (µM)

Compound	Readout Qualifier	Endpoint Result
CC(=O)O[C@H]1CCc2c(cc(N)c3c2C(=O)C[C@]2(C)C([C@H](C)CCCC(C)C)CCC32C)C1(C)C (stereo not given in full)	>	100
O=C(/C=C/c1ccccc1)c1ccc(NCc2nc3ccccc3[nH]2)cc1	=	15.4
Cc1ccc(-c2nc3nc(-c4ccc(F)cc4)nc(N4CCCNCC4)c3o2)cc1	=	3.13
O=C1c2ccccc2NC(=S)[C@@H]2CCCN12	>	100
CCOC(=O)C#Cc1ccccc1	=	80.1

###

System: HOP-62 NSCLC
Assay Name: NCI tumour cell line growth inhibition, 48 h

Compound	TGI
C=C(C)C1C/C=C(/C)CCCC2(CCC3=C(CC(C(=C)C)C/C=C(/C)CCC3)O2)C(=O)C1 (stereo unspecified)	> 100 µM
O=C(O)c1ccc(C2C(=O)N[C@@H]3CCC[C@H]23)cc1 (stereo partly specified)	> 100 µM
CC(=O)/C(=C/c1ccccc1F)C(=O)c1ccccc1	> 100 µM
Cc1ccc(-c2nc3nc(-c4ccc(F)cc4)nc(N4CCCNCC4)c3o2)cc1	3.51 µM
Nc1nn2c(=O)c3ccccc3nc2s1	> 100 µM
Cc1cc(I)cc(CN(C)CCCN2CCCC2)c1O	34.8 µM
COC1=C(C)C(=O)c2c(c(COC(N)=O)c3n2CC(OC(C)=O)C3OC(C)=O)C1=O (stereo unspecified)	0.563 µM
C[C@]12CC[C@@H]3c4cc(I)c(O)cc4CC[C@H]3[C@@H]1CC[C@@H]2O	17.3 µM
O=c1cc(N2CCCC2)[nH]c(=O)n1-c1ccccc1	> 100 µM
O=C(O)[C@H](c1ccccc1)[C@@H](C(=O)O)c1ccccc1	> 100 µM
C=C1C(O)CC[C@]2(C)C1C1OC(C)(C)O[C@]13CC(=O)C(C)=C([C@H]1OC(C)(C)OC12)C3(C)C (stereo partly specified)	> 100 µM
COc1ccc(NC(=S)NC(=O)c2ccc3c(c2)Sc2ccccc2O3)c([N+](=O)[O-])c1	> 100 µM
COC1CC(OC2CCC3(C)C(=CCC4C3C(OC(C)=O)C(OC(=O)CC(C)C)C3(C)C(C(C)=O)CCC43O)C2)OC(C)C1OC1CC(OC)C(OC2CC(OC)C(OC3OC(C)C(OC4OC(CO)C(O)C(O)C4O)C(OC)C3O)C(C)O2)C(C)O1 (stereo unspecified)	> 75 µM
CCOC(=O)c1nnsc1NN	> 100 µM
C=C1C(=O)O[C@H]2[C@H]1CC/C(C=Nc1c(N)cc(C(F)(F)F)cc1Br)=C\CC[C@@]1(C)O[C@@H]21	4.82 µM
CCCCN(CCCC)C(=O)/C(CC(=O)c1cccc2ccccc12)=N\NC(=O)c1cc2ccccc2cc1O	39.9 µM
COc1ccc(OC)c(Cn2cc3c(c2-c2ccccc2)CCc2cnoc2-3)c1	> 100 µM
O=C(N/N=C/c1cccc(F)c1)c1ccncc1	> 100 µM
COc1ccc(C(=O)c2ccc([As]=O)cc2)cc1 (stereo unspecified)	0.183 µM
CCN(C(=O)/C=C/c1ccco1)c1ccccc1	> 100 µM
NC(=O)N/N=C1\CC2C3CC4C2C4C13 (stereo unspecified)	> 100 µM

###

Test system: OVCAR-4 ovarian
Assay Name: NCI tumour cell line growth inhibition, 48 h

Molecule	GI50
N#Cc1ccc(NC(=O)C(CC(=O)OCc2ccccc2)NC(=O)OCc2ccccc2)cc1 (centres undefined)	> 100000 nM
CCNC(=O)c1noc(-c2cc(C(C)C)c(O)cc2O)c1-c1ccc(CN2CCOCC2)cc1	10900 nM
COC(=O)C1(C)Cc2cc(OC(C)=O)c(OC(C)=O)cc2N1 (centres undefined)	9340 nM
O=S(=O)(CCCl)c1ccc(Cl)cc1	2220 nM
O=c1c(F)cn(Cc2ccccc2CCl)c(=O)n1Cc1ccccc1CCl	3500 nM
C=C1C[C@@H]2CC[C@@]34C[C@H]5O[C@H]6[C@@H](O3)[C@H]3O[C@H](CC[C@@H]3O[C@H]6[C@@H]5O4)CC(=O)C[C@@H]3[C@@H](OC)[C@@H](C[C@H](O)CN)O[C@H]3C[C@H]3O[C@@H](CC[C@@H]1O2)C[C@@H](C)C3=C	1030 nM
O=C(N/N=C/c1ccccc1O)c1ccccc1	725 nM
C=C1C(=O)O[C@H]2[C@H]1CC/C(COC(=O)NCC(C)c1ccc(CC(C)C)cc1)=C\CC[C@@]1(C)O[C@@H]21 (some centres undefined)	2310 nM
O=c1oc2ccc(I)cc2c(=O)n1-c1ccc(Cl)cc1F	1680 nM

###

Tested on: HCC-2998 colon
Assay Name: NCI tumour cell line growth inhibition, 48 h
Listed next: entries and their corresponding TGI.

Compound	TGI
COC(=O)C1(Cc2ccc3c(c2)CCC3)Cc2ccccc2C1	> 100 µM
CC(C)(C)C(=O)[CH-]C(=O)C(C)(C)C.CC(C)(C)C(=O)[CH-]C(=O)C(C)(C)C.CN(C)c1ccc([O-])cc1.CN(C)c1ccc([O-])cc1.[Ti+4]	> 100 µM
CC(C)(C)c1cc(C=C(C#N)C#N)cc(C(C)(C)C)c1O	18.4 µM
CO[C@@H]1O[C@H](C(=O)c2ccccc2)[C@H]2OC(C)(C)O[C@@H]12	> 100 µM
c1ccc2[nH]c(-c3ccc(Nc4nc(N5CCCCC5)nc(N5CCOCC5)n4)cc3)nc2c1	> 100 µM
COC(=O)C1=Nc2c(C)nn(-c3ccccc3)c2N=C(c2ccccc2)C1	> 10 µM
CCOC(=O)c1nc2cc(C(F)(F)F)ccc2nc1Nc1ccc(C(=O)NC(C(=O)OCC)C(=O)OCC)cc1	> 100 µM
CSC(=NCCc1c[nH]c2ccccc12)NC#N	> 100 µM
COC(=O)C1(C)Cc2cc(OC(C)=O)c(OC(C)=O)cc2N1 (stereo unspecified)	33 µM
CCOC(=O)/C(C#N)=C\C=C(/Cl)c1ccc(Cl)cc1	31.1 µM
COc1ccc(CN2CCC/C=C/CC(Cl)(Cl)C2=O)cc1	> 100 µM
CCOC(=O)C1SC(=Nc2ccc(Cl)cc2)N=C1C (stereo unspecified)	31.5 µM
Nc1ncnc2c1ncn2CC(O)CO (stereo unspecified)	> 100 µM
C=C1C(=O)O[C@H]2[C@H]1CC/C(COC(=O)NCC(C)c1ccc(CC(C)C)cc1)=C\CC[C@@]1(C)O[C@@H]21 (stereo partly specified)	6.72 µM
CNC(=O)CCCNC(=O)CCCC(=O)N(C)C	> 100 µM
O=C(N[C@@H](C[Se][Se]C[C@H](NC(=O)c1ccc(Br)cc1F)C(=O)O)C(=O)O)c1ccc(Br)cc1F	> 100 µM
C\C(=N/N=C1/C(=C\N(C)C)C(=O)NC(=O)N1C)c1ccc(Cl)cc1	> 100 µM
CCOC(=O)/C(O)=C1\C(=O)N(C)C(=O)C1c1cccc(OC)c1 (stereo unspecified)	> 100 µM
O=S(=O)(CCCl)c1ccc(Cl)cc1	25.6 µM
COc1ccc(C(=O)c2ccc([As]=O)cc2)cc1 (stereo unspecified)	0.246 µM
CC(C)OC(=O)OCSc1ccccc1N=Cc1cccc([N+](=O)[O-])c1	> 10 µM
